systemTested: T1, human GIP receptor (human, UniProt P48546 22-466)
T1 sequence (looked up): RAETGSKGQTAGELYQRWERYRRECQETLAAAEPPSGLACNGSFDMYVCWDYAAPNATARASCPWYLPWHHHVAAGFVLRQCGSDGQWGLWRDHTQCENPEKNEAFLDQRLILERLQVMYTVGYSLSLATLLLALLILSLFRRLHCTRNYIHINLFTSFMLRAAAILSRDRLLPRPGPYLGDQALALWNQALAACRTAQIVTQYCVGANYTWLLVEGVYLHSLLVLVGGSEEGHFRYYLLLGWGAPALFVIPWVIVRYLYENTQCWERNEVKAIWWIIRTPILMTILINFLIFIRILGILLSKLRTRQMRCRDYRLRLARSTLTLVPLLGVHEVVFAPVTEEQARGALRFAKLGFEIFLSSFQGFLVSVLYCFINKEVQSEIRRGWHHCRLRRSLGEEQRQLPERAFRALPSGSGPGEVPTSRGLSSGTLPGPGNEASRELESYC
testProtocol: cell-based or functional assay
Bridge positions count the residues as written; N and C are the ends. Square brackets hold non-standard residues; d marks the D form. Ends that are not written are not given here. Aib = CC(C)(N)C(=O)O
Each entry below lists one item and its recorded In vitro activity (%) compared with native peptide, vs GIP value.

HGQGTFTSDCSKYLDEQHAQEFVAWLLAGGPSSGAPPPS [triple agonist of SEQ ID NO: 46] ... < 0.1%
H[Aib]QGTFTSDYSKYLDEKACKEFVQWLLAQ (bridge 16-20) [triple agonist of SEQ ID NO: 31] ... 2.4%

Using known records, supply In vitro activity (%) compared with native peptide, vs GIP for H[Aib]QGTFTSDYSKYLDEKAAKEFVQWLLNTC (bridge 16-20; not fully specified) [triple agonist of SEQ ID NO: 29] < 0.1%
